# ASSAY SYSTEM: Phosphoenolpyruvate carboxykinase, cytosolic [GTP] [H477R] (Rat, UniProt P07379, H477R)
# Sequence (P07379 whole entry H477R): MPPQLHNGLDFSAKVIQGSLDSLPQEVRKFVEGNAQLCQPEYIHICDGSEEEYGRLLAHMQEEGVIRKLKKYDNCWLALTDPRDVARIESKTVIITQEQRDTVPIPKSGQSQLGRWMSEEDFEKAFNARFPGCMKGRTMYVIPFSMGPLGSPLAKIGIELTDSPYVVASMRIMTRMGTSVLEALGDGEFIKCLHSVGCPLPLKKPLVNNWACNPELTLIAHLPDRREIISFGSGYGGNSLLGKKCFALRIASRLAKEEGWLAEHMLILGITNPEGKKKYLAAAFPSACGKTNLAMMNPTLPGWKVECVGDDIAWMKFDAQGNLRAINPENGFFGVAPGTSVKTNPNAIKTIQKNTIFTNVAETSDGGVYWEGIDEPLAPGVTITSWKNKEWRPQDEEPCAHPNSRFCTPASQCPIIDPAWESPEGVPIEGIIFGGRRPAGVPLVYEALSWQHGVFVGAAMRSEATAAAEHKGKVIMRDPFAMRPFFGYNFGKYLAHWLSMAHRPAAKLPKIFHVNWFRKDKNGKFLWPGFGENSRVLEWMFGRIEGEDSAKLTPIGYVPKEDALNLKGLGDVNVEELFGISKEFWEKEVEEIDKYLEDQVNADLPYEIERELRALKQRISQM
# ASSAY DETAILS: PEPCK Inhibition Assay
Each record here notes measured Ki.
MEASURE: Ki (µM)

compound="O=C(O)C(=O)CS(=O)(=O)O [β-Sulfopyruvate]" measure=Ki quantitative_result=37
compound="O=C(O)CC(=O)C(=O)O [keto-Oxaloacetate]" measure=Ki quantitative_result=441
compound=Nc1nc(O)c2ncn([C@@H]3O[C@H](COP(=O)(O)OP(=O)(O)C[P+]([O-])(O)O)[C@@H](O)[C@H]3O)c2n1 measure=Ki quantitative_result=696
compound="C=C(OP(=O)(O)O)C(=O)O [PHOSPHOENOLPYRUVATE]" measure=Ki quantitative_result=289
